testTarget: Serine/threonine-protein kinase MRCK alpha (Homo sapiens)
assayContext: at 1 µM
resultType: residual activity (%)
Number in %, nothing else.

// below: answered compounds
O=[N+]([O-])/C=C/c1ccc2c(c1)OCO2 106
O=c1[nH]c2ccccc2n1C1CCN(Cc2ccc(-c3nc4cc5[nH]cnc5cc4nc3-c3ccccc3)cc2)CC1 122
CC(C)(C)c1cc(C=C(C#N)C#N)cc(Br)c1O 108
c1cc(-c2cnn3cc(-c4ccc(OCCN5CCCCC5)cc4)cnc23)ccn1 121
CCc1nc(-c2ccc(OC)cc2)[nH]c1-c1ccncc1 115

Attention now turns to another entry.
-- ask I have this compound here, `COc1cc2ncnc(Nc3ccc(OCc4ccccc4)cc3)c2cc1OC` , and I need its recorded residual activity.
-- reply 121

###

testTarget: Vascular endothelial growth factor receptor 3 (Homo sapiens) (UniProt P35916)
Sequence (P35916 whole entry): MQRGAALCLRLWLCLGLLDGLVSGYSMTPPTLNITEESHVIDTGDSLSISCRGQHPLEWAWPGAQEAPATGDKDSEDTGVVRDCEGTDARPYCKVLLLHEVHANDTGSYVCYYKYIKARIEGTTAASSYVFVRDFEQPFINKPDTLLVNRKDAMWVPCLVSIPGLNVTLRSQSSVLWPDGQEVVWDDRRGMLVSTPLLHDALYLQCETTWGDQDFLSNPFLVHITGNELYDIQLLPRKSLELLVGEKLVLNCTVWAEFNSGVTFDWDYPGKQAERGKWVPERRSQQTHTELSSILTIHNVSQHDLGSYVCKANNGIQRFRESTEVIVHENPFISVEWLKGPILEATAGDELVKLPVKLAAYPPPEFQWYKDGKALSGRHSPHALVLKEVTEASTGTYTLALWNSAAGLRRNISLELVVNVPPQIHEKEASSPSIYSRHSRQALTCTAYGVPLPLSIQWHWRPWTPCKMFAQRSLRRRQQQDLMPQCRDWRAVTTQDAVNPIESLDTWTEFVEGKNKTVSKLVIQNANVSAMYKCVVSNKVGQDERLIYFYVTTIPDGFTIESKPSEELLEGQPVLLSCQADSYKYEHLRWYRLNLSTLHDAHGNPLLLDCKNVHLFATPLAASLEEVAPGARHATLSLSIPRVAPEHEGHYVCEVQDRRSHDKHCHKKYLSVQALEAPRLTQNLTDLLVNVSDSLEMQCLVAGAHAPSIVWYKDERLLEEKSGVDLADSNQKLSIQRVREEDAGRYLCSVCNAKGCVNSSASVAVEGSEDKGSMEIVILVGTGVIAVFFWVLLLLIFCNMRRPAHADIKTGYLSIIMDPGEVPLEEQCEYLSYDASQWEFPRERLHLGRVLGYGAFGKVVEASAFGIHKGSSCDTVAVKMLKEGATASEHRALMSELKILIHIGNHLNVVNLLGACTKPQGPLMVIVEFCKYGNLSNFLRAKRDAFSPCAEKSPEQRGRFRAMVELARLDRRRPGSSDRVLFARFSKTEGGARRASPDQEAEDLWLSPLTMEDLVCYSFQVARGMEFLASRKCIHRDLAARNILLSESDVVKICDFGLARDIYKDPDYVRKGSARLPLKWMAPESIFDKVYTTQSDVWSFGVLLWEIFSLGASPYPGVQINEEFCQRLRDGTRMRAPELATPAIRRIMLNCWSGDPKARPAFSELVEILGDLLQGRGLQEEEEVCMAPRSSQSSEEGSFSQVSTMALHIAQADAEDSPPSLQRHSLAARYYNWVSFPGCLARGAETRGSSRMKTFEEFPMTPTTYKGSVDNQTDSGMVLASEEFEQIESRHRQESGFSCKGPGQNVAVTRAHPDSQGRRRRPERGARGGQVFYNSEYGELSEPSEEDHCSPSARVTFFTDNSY
assayContext: at 1 µM
The reader will find reported residual activity values listed item by item below.
Number in %, nothing else.

// below: answered compounds
compound	residual activity (%)
CC(C)(C)c1cc(C=C(C#N)C#N)cc(Br)c1O	96
COc1cc(OC)c(/C=C2\C(=O)Nc3ccccc32)c(OC)c1	76
CCc1nc(-c2ccc(OC)cc2)[nH]c1-c1ccncc1	100

-- ask I have this compound here, `COC(=O)[C@@]1(O)C[C@H]2O[C@]1(C)n1c3ccccc3c3c4c(c5c6ccccc6n2c5c31)C(=O)NC4` , and I need its recorded residual activity.
-- reply 0

-- ask Next record, please: `CCn1cnc2c(Nc3cccc(Cl)c3)nc(N[C@@H]3CCCC[C@@H]3N)nc21`
-- reply 50

-- ask Next record, please: `O=[N+]([O-])/C=C/c1ccc2c(c1)OCO2`
-- reply 88

-- ask Next record, please: `O=C1Nc2ccc3ncsc3c2/C1=C/c1c[nH]cn1`
-- reply 0

-- ask Next record, please: `COc1cc2ncnc(Nc3ccc(OCc4ccccc4)cc3)c2cc1OC`
-- reply 6

-- ask Next record, please: C[S+]([O-])c1ccc(-c2nc(-c3ccc(F)cc3)c(-c3ccncc3)[nH]2)cc1 (configuration not stated)
-- reply 93

-- ask Next record, please: `O=C1NC(=O)c2c1c1c3ccccc3n3c1c1c2c2ccccc2n1C1CCC3O1`
-- reply 0

-- ask Next record, please: `N/C(=N\[N+](=O)[O-])N/N=C\c1ccc(-c2cccc([N+](=O)[O-])c2)o1`
-- reply 58

-- ask Next record, please: `c1cc(-c2cnn3cc(-c4ccc(OCCN5CCCCC5)cc4)cnc23)ccn1`
-- reply 1

###

testTarget: Mast/stem cell growth factor receptor Kit (Homo sapiens) (UniProt P10721)
Sequence (P10721 whole entry): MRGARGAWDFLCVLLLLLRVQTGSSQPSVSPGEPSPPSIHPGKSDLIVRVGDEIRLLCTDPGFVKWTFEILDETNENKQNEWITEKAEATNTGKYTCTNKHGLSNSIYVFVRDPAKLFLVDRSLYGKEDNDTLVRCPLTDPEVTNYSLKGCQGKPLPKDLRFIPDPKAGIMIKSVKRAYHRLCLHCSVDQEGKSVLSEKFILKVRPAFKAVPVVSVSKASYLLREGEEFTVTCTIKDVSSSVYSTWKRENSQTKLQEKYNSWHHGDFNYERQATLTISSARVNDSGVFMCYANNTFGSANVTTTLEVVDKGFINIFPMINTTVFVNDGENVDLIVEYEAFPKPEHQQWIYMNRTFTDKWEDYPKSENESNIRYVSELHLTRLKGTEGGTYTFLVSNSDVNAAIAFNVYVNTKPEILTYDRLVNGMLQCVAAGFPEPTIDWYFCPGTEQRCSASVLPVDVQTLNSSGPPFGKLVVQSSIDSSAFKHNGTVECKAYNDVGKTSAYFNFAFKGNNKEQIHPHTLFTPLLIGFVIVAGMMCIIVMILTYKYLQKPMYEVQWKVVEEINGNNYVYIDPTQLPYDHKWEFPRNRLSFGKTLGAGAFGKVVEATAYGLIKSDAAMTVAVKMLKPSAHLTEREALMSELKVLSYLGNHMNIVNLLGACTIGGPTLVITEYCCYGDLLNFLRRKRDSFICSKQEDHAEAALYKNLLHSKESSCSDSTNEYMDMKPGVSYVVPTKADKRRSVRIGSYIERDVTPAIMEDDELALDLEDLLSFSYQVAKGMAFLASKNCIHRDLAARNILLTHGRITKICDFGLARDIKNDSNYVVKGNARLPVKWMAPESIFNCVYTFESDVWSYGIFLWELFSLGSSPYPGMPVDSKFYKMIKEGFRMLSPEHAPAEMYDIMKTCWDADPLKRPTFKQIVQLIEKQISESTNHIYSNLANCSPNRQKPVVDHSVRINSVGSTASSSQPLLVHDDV
assayContext: at 1 µM
resultType: residual activity (%)
Number in %, nothing else.

-- ask I have this molecule here, `COc1cc(OC)c(/C=C2\C(=O)Nc3ccccc32)c(OC)c1` , and I need its recorded residual activity.
-- reply 98

-- ask Next record, please: `O=C1Nc2ccc3ncsc3c2/C1=C/c1c[nH]cn1`
-- reply 25

-- ask Next record, please: C[S+]([O-])c1ccc(-c2nc(-c3ccc(F)cc3)c(-c3ccncc3)[nH]2)cc1 (stereo unspecified)
-- reply 119

###

testTarget: Serine/threonine-protein kinase Nek2 (Homo sapiens)
assayContext: at 1 µM
Description: Millipore: Percentage of residual kinase activity of NEK2 at 1uM relative to control. Control inhibitor: Phosphoric acid* at 0.3uM. Buffer: 8 mM MOPS pH 7.0, 0.2 mM EDTA
resultType: residual activity
Give me the value, and tack the unit on after it.

// below: answered compounds
CCc1nc(-c2ccc(OC)cc2)[nH]c1-c1ccncc1 112%
O=[N+]([O-])/C=C/c1ccc2c(c1)OCO2 87%
O=C1Nc2ccc3ncsc3c2/C1=C/c1c[nH]cn1 64%
CCn1cnc2c(Nc3cccc(Cl)c3)nc(N[C@@H]3CCCC[C@@H]3N)nc21 98%

Attention now turns to another entry.
-- ask I have this compound here, `CC(C)[C@H](CO)Nc1nc(Nc2cccc(Cl)c2)c2ncn(C(C)C)c2n1` , and I need its recorded residual activity.
-- reply 90%
